measure-name: melting point

Prompt: Answer with reported melting point of O=C(O)Cc1ccc(CCOc2ccc(CC3SC(=O)NC3=O)cc2)nc1 (stereo unspecified)
Response: 144 to 145 °C

Prompt: Answer with reported melting point of CCCCCCCCCCCCCCCC(=O)Nc1cccc(C(=O)O)c1C
Response: 163 to 165 °C

Prompt: Answer with reported melting point of CCC(CC)(NC(C)=O)c1ccc(CN2CCN(c3ccccc3)CC2)cc1
Response: 139 to 140 °C

Prompt: Answer with reported melting point of CC(C(=O)c1ccccc1)(c1ccccc1)c1ccccc1Sc1ccccc1C(C)(C(=O)c1ccccc1)c1ccccc1 (stereo unspecified)
Response: 101 °C

Prompt: Answer with reported melting point of COc1ccc2c(C)c([N+](=O)[O-])ccc2c1C(F)(F)F
Response: 141 to 142 °C

Prompt: Answer with reported melting point of O=C(CCC1CCCCC1)C1=C(O)CSC1=O
Response: 60 to 62 °C

Prompt: Answer with reported melting point of NC1(C2CCN(c3c(F)cc4c(=O)[nH]c(=O)n(C5CC5)c4c3OC(F)F)C2)CC1 (stereo unspecified)
Response: 210 to 214 °C

Prompt: Answer with reported melting point of COC(=O)c1cccc(C=C2COc3ccc(OCc4ccccc4)cc3C2=O)c1
Response: 109 to 112 °C

Prompt: Answer with reported melting point of COc1cc(CC(=O)O)ccc1OCCc1ccccc1
Response: 97 to 100 °C

Prompt: Answer with reported melting point of CCCN(CCCNc1c(Cl)cn[nH]c1=O)CCOc1cccc2c1OCCO2
Response: 87 to 89 °C

Prompt: Answer with reported melting point of c1ccc(C(c2ccccc2)N2CC2)cc1
Response: 56 to 58 °C

Prompt: Answer with reported melting point of COc1ccc(C2=NN(c3ccc(C4=NNC(=O)CC4C)cc3)C(=O)C3CCCCC23)cc1OC1CCCC1 (stereo unspecified)
Response: 134 to 141 °C

Prompt: Answer with reported melting point of CN1CC2CC1CN2c1cncc(Cl)n1 (stereo unspecified)
Response: 125 to 126 °C

Prompt: Answer with reported melting point of OCC1CCN(c2ccncc2)CC1
Response: 183 to 185 °C

Prompt: Answer with reported melting point of CCc1[nH]n(C2CCCC2)c2nc(Cc3ccc(OC)cc3)nc(=O)c1-2
Response: 172 to 173 °C

Prompt: Answer with reported melting point of CN(c1ccc(CC(=O)O)cc1)c1cc(C(C)(C)C)c(O)c(C(C)(C)C)c1
Response: 181 to 182 °C

Prompt: Answer with reported melting point of CC(CCl)N1C(=O)N(c2ccc(Cl)cc2)CC1C (stereo unspecified)
Response: 70 to 72 °C

Prompt: Answer with reported melting point of COc1cc(C(=O)C=Cc2cc(-c3cccs3)ccc2OC)ccc1O
Response: 142 to 144 °C

Prompt: Answer with reported melting point of Cc1ccc(C(Cn2cncn2)=NOCc2c(Cl)cccc2Cl)c(Cl)c1
Response: 97 to 99 °C

Prompt: Answer with reported melting point of N=C(NCC1CCCO1)Nc1c([N+](=O)[O-])cnc2ccccc12 (stereo unspecified)
Response: 210 to 212 °C

Prompt: Answer with reported melting point of ClCCCC1(c2ccccc2)OCCO1
Response: 54 to 55.5 °C

Prompt: Answer with reported melting point of CC(C)c1cc(Cl)cc(C(C)C)c1NC(=O)NS(=O)(=O)c1cc(C2(C)OCCO2)ccc1F
Response: 168 to 170 °C

Prompt: Answer with reported melting point of Cc1ccc2oc(Br)c(-c3ccccc3)c2c1
Response: 52 to 57 °C

Prompt: Answer with reported melting point of O=C(CC[N+](=O)[O-])c1ccccc1
Response: 59 to 62 °C

Prompt: Answer with reported melting point of CS(=O)(=O)OCCc1ccc(OCc2coc(/C=C/c3ccccc3)n2)cc1
Response: 121 to 122 °C

Prompt: Answer with reported melting point of CC(C)C(NS(=O)(=O)c1ccc(Cl)s1)c1ncnn1Cc1ccccc1 (stereo unspecified)
Response: 138 to 139 °C

Prompt: Answer with reported melting point of CN1C(=O)C(C(=O)Nc2ccccc2)c2cc3c(cc2S1(=O)=O)CCCC3 (stereo unspecified)
Response: 203 to 204 °C

Prompt: Answer with reported melting point of CCNC(=O)NNC=NC(=O)c1nc(Cl)c(NC(C)C)nc1N
Response: 148 to 150 °C

Prompt: Answer with reported melting point of CC(C)(O)CC1c2ccccc2C(=O)N1CC(=O)O (stereo unspecified)
Response: 198 to 199 °C

Prompt: Answer with reported melting point of Cc1nc(N2CCN(CC3CC3)C2=O)sc1C(=O)NCc1ccncc1
Response: > 200 °C

Prompt: Answer with reported melting point of Cc1ncc(CO)n1-c1ccc([N+](=O)[O-])cc1C(=O)c1ccccc1F
Response: 188 to 192 °C

Prompt: Answer with reported melting point of CCOC(=O)C1=C(COCCNc2nc(N)n[nH]2)NC(C)=C(C(=O)OC)C1c1cccc(C(F)(F)F)c1Cl (stereo unspecified)
Response: 144 to 145 °C

Prompt: Answer with reported melting point of O=C(NCCC[C@H]1OC[C@H](c2cccc3cc(OCC4CC4)ccc32)CO1)Oc1ccc(Cl)cc1
Response: 159 to 162 °C

Prompt: Answer with reported melting point of CC1C(C)(C)C2=C(c3ncncc3CC2)C1(C)C (stereo unspecified)
Response: 80 °C

Prompt: Answer with reported melting point of CCOC(=O)c1cn(CC)c2oc(CN3CCOCC3)cc2c1=O
Response: 229 to 231 °C

Prompt: Answer with reported melting point of CCCCc1nc2ccccc2n1Cc1ccc(-c2ccccc2C(=O)O)cc1
Response: 225 to 227 °C

Prompt: Answer with reported melting point of CCCC=C(c1ccccc1N1CCCCC1)C(C(N)=O)c1ccc(C(=O)OCC)cc1 (stereo unspecified)
Response: 94 to 97 °C

Prompt: Answer with reported melting point of CC1NC(=O)Nc2ccc(C(=O)CBr)cc21 (stereo unspecified)
Response: 188 to 190 °C

Prompt: Answer with reported melting point of CC(C)C1CCN(Cc2ccc(COc3cccc4c3CN(C3CCC(=O)NC3=O)C4=O)cc2)CC1 (stereo unspecified)
Response: 124 to 126 °C

Prompt: Answer with reported melting point of COC(=O)c1cc(OC)c(CCNC(C)=O)c(OC)c1
Response: 233 to 235 °C

Prompt: Answer with reported melting point of CCOC(=O)C(=O)c1ccc(OCCCCCCc2cccc(OCc3ccccc3)c2OCc2ccccc2)cc1
Response: 39 to 42 °C

---

For each entry below, report its melting point value.

Prompt: Answer with reported melting point of COC(=O)c1cc(I)cc2c(=O)cc[nH]c12
Response: 75 to 77 °C

Prompt: Answer with reported melting point of CCCN(CCC)C1Cn2cnc3cccc(c32)C1C (stereo not given)
Response: 78 to 84 °C

Prompt: Answer with reported melting point of O=[N+]([O-])c1c(F)cc(Br)c(OCCCl)c1Br
Response: 56 °C

Prompt: Answer with reported melting point of O=C1CC2(C(=O)N1)C(=O)N(Cc1ccc(Cl)c(Cl)c1)c1ccc(F)cc12 (stereo not given)
Response: 253 to 254 °C

Prompt: Answer with reported melting point of CC(=O)Oc1ccccc1C(=O)OCCSS(C)(=O)=O
Response: 90 to 91 °C

Prompt: Answer with reported melting point of N#Cc1ccc(NC(=O)C(=O)N2CCC(Cc3ccc(F)cc3)CC2)cc1
Response: 167 to 169 °C

Prompt: Answer with reported melting point of CC(Br)c1nc2ccccc2c(=O)n1-c1ccc(F)cc1 (stereo not given)
Response: 180 °C

Prompt: Answer with reported melting point of CCCn1cc2c(C3C(=O)Nc4ccc(Br)cc43)nc(NCCc3ccccn3)nc2n1 (stereo not given)
Response: 283 to 291 °C

Prompt: Answer with reported melting point of CC(Oc1c(-c2ccc(S(C)(=O)=O)cc2)cnn(CC(F)(F)F)c1=O)c1ccc(F)cc1 (stereo not given)
Response: 133 to 135 °C

Prompt: Answer with reported melting point of CCCCCCCN(CCCCCSc1nc(-c2ccccc2)c(-c2ccccc2)[nH]1)C(=N)Nc1ccccc1
Response: 135 to 136 °C

---

For each entry below, report its melting point value.

Prompt: Answer with reported melting point of Cc1cc2c(c(C)c1O)C(C)(C)CN2C(=O)C(C)(C)C
Response: 143 to 144 °C

Prompt: Answer with reported melting point of O=C1CCC(=O)C1C(=O)CCc1ccc2c(c1)OCO2
Response: 93 to 94 °C

Prompt: Answer with reported melting point of CCOC(=O)c1ccc(CCN2CCN(Cc3ccc(OC)cc3)CC2)cc1
Response: 75 to 76 °C

Prompt: Answer with reported melting point of CS(=O)(=O)c1ccc(NCC(O)CO)c([N+](=O)[O-])c1 (stereo unspecified)
Response: 133 °C

Prompt: Answer with reported melting point of N#Cc1ccc(CC2CCN(Cc3ccccc3)CC2)cc1
Response: 95 to 96 °C

Prompt: Answer with reported melting point of CCCc1nc2ccnn2c(O)c1Cc1ccc(-c2ccccc2-c2nnn[nH]2)cc1
Response: > 320 °C

Prompt: Answer with reported melting point of O=C1CCN=C(c2ccccc2F)c2cc(Cl)ccc21
Response: 107 to 109 °C

Prompt: Answer with reported melting point of O=C(O)Cn1cccc(NC(=O)CCc2ccccc2)c1=O
Response: 195 to 197 °C

Prompt: Answer with reported melting point of N#Cc1nn(-c2c(Cl)cc(C(F)(F)F)cc2Cl)c(Cl)c1C#CBr
Response: 153 °C

Prompt: Answer with reported melting point of CN(C)C(=O)C1=Cc2cccc(OC[C@@H]3CO3)c2OC1
Response: 115 to 117 °C

Prompt: Answer with reported melting point of Cc1ccc(S(=O)(=O)N2CC(CO)(C(=O)O)C2)cc1
Response: 148 to 150 °C

Prompt: Answer with reported melting point of CCOc1cc2ncc(C#N)c(C)c2cc1OCC
Response: 140 to 145 °C

Prompt: Answer with reported melting point of O=C(Nc1cccnc1)N1CCN(c2nc(-c3cccc(Cl)c3Cl)cs2)CC1
Response: 132 to 133 °C

Prompt: Answer with reported melting point of CCOC(=O)NN=Cc1c[nH]c(Cc2ccccc2)n1
Response: 184 to 185 °C

Prompt: Answer with reported melting point of COc1ccc2c(c1)CCC1CC(=O)NN=C21 (stereo unspecified)
Response: 198 °C

Prompt: Answer with reported melting point of O=Cc1cccc(-c2nc3sccn3c2-c2ccnc(N[C@@H]3CCCN(S(=O)(=O)c4ccc(Cl)cc4)C3)n2)c1
Response: 124 to 126 °C

Prompt: Answer with reported melting point of Cc1cn(N=Cc2cccnc2)c(=O)n1N=Cc1cccnc1
Response: 176 to 178 °C

Prompt: Answer with reported melting point of OCc1nccn1C(c1ccccc1)(c1ccccc1)c1ccccc1
Response: 243 to 244 °C

Prompt: Answer with reported melting point of CCCc1nc(SC(F)F)c(C(=O)O)n1Cc1ccc(-c2ccccc2S(=O)(=O)NC(=O)NCc2cccc3ccccc23)cc1
Response: 144 °C

Prompt: Answer with reported melting point of CC(C)(C)c1ccc(C(CCCN2CCC(=NO)CC2)OC2CCCCO2)cc1 (stereo unspecified)
Response: 150 to 151 °C

Prompt: Answer with reported melting point of CSCC(C)OC(=O)C(=C1NCCCS1)[N+](=O)[O-] (stereo unspecified)
Response: 58 to 60 °C
